Where these numbers come from: the supplement of paper PMC9170038

Here the recorded apparent KD of MS2 coat protein is given for each entry.
- System: MS2 coat protein
- ASSAY EXPLANATION: apparent KD of MS2 coat protein; designed switch direction (-1 OFF switch, 1 ON switch): 1; higher = weaker reporter binding
- CONDITION DESCRIPTION: Eterna round: R95; input ligand: none

>  <SEQUENCE RECORD>
UGUCCAGCCUGAGCUGGACAAAAGCAUGUACAUGAGGAUCACCCAUGUUCAUGUACAAGCUUUUUGCUCGUCUUAGU [salish99_208a_r3_065] (puzzle: Sensor for hsa-mir-208a)

>  <apparent KD of MS2 coat protein>
619 nM

$$$$
>  <SEQUENCE RECORD>
ACAAGCUUUUCUGUAUUGAAAGGUGGGAUACAUGAGGAUCACCCAUGUUUUUUUGUUUAUUUUUUUCCUCGUCUUAU [JR_SHM208A_Sub088] (puzzle: Sensor for hsa-mir-208a)

>  <apparent KD of MS2 coat protein>
34.3 nM

$$$$
>  <SEQUENCE RECORD>
ACAGCCGGCACUGAGGAUAUUCAUAUUAAAACAUGAGGAUCACCCAUGUAGGCCAGAAGGCCUUGGGAGAAGGCAGGUCGGCUGA [Mat - Same State 2 - Mod of UCT - D64] (puzzle: Same State 2)

>  <apparent KD of MS2 coat protein>
391 nM

$$$$
>  <SEQUENCE RECORD>
GGUCCAGCCUGAGCUGGACCACAGCAUGUACAUGAGGAUCACCCAUGUCAUGUACAAGCUUUUUGUUUAAAAUAAAA [Sensorship 13 - Jieux - Sensor for hsa-mir-208a] (puzzle: Sensor for hsa-mir-208a)

>  <apparent KD of MS2 coat protein>
209 nM

$$$$
>  <SEQUENCE RECORD>
AGAAAACAUGAGGAUCACCCAUGUAUAGUGAAUACAGGAUAUCAUCGACGGAAUAGUUGAUGAGAAGGGUGAUCGC [Gebiatan] (puzzle: Same State 1)

>  <apparent KD of MS2 coat protein>
10.4 nM

$$$$
>  <SEQUENCE RECORD>
GGAGCCUGCACUGAGGAUAUUCAUAUUUAAACAUGAGGAUCACCCAUGUAGGCCAGAAGGCCUUGGGAGAAGGCAGGUCGGCUCG [salish99_ss2_r3_083] (puzzle: Same State 2)

>  <apparent KD of MS2 coat protein>
780 nM

$$$$
>  <SEQUENCE RECORD>
GGUAAACAUGAGGAUCACCCAUGUAAUAUAAUGGGAGGAUAUCUGAAUUAAUUAAAUUAAGGAGAAGGCCUAAUGU [Mat - Same State 1 - Mod of Eli - D50] (puzzle: Same State 1)

>  <apparent KD of MS2 coat protein>
410 nM

$$$$
>  <SEQUENCE RECORD>
GGAGCCUGCACUGAGGAUAUUCAUAGUGUAACAUGAGGAUCACCCAUGUGUCGCCGUAGCGACUGGGAGAAGGCAGUGCGGCUCG [JL-ss2-3.06 ViennaUCT mod] (puzzle: Same State 2)

>  <apparent KD of MS2 coat protein>
325 nM

$$$$
>  <SEQUENCE RECORD>
UCUUGGUUUUUGCUCGUUUUUUGUGUUGAACAUGAGGAUCACCCAUGUAUUGUACGGUCCGAUUUAAUAGUGGUCCG [JMF 19] (puzzle: Sensor for hsa-mir-208a)

>  <apparent KD of MS2 coat protein>
27 nM

$$$$
>  <SEQUENCE RECORD>
GGAGCCGGCACUGAGGAUAUUCGUAUUAAAACAUGAGGAUCACCCAUGUAGGCCAGAAGGCCUUGGGAGAAGGCAGGUCGGCCCG [Bibimoar - 5] (puzzle: Same State 2)

>  <apparent KD of MS2 coat protein>
46.4 nM

$$$$
>  <SEQUENCE RECORD>
GGGCCAGCUUUUGCUGGGCCUUCGCUUGCACAUGAGGAUCACCCAUGUCGUGUACACGCUUCCUGCCCGUCUUUUUU [Photon Torp-18] (puzzle: Sensor for hsa-mir-208a)

>  <apparent KD of MS2 coat protein>
21.8 nM

$$$$
>  <SEQUENCE RECORD>
GUUAUACAUGAGGAUCACCCAUGUCAAUGUAGUCGAGGAUAUGGGUUGCUAUGAGGCGUACUAGAAGGCGAGGAGU [JL-ss1-3.17 ViennaUCT mod] (puzzle: Same State 1)

>  <apparent KD of MS2 coat protein>
265 nM

$$$$
>  <SEQUENCE RECORD>
GACAAUCUAUCUGAGGAUAUCAUGAAUAAAACAUGAGGAUCACCCAUGUGCAGGAUAACUGCAAAUGAGAAGGCAGAUAGAUUGU [Mat - Same State 2 - Mod - D7] (puzzle: Same State 2)

>  <apparent KD of MS2 coat protein>
27.7 nM

$$$$
>  <SEQUENCE RECORD>
AGCAUACAUGAGGAUCACCCAUGUCAACUUAGUCGAGGAUAUGGGCAGCCCUGAGGCGAACCAGAAGGCGAAUUGA [Mat - Same State 1 - Mod of JL - D1] (puzzle: Same State 1)

>  <apparent KD of MS2 coat protein>
66.1 nM

$$$$
>  <SEQUENCE RECORD>
AGUCUACGGUGACGUAGACAGUAGUGCGUACAUGAGGAUCACCCAUGUCAUGUAAGAGUUACUUGUUCGUCUUGAAC [SENSOR #3] (puzzle: Sensor for hsa-mir-208a)

>  <apparent KD of MS2 coat protein>
20.2 nM

$$$$
>  <SEQUENCE RECORD>
ACAAGCUUUUUUGUAGUGAAAGGUGGGAUACAUGAGGAUCACCCAUGUAUUGUUGUUAAUAUUGGACCUCGUCUUAU [JR_SHM208A_Sub084] (puzzle: Sensor for hsa-mir-208a)

>  <apparent KD of MS2 coat protein>
22.5 nM

$$$$
>  <SEQUENCE RECORD>
GUUAAACAUGAGGAUCACCCAUGUCAUCUAAGUCGAGGAUAUGGGAAUUAAUUAAUUAAACCAGAAGGCGAAAAUG [Mat - Same State 1 - D96] (puzzle: Same State 1)

>  <apparent KD of MS2 coat protein>
126 nM

$$$$
>  <SEQUENCE RECORD>
GGGCCAGCCUGUGCUGGGCUUUAGCAUGCACAUGAGGAUCACCCAUGUCGUGUACAUGCUUUUUGCUCGUCUUUAAA [Photon Torp-08] (puzzle: Sensor for hsa-mir-208a)

>  <apparent KD of MS2 coat protein>
84.1 nM

$$$$

====

Here the recorded apparent KD of MS2 coat protein is given for each entry.
- Test system: MS2 coat protein
- ASSAY EXPLANATION: apparent KD of MS2 coat protein; designed switch direction (-1 OFF switch, 1 ON switch): 1; higher = weaker reporter binding
- CONDITION DESCRIPTION: input ligand: FMN 200 uM

>  <SEQUENCE RECORD>
GAGUGGAGGAGAGGAUAUACAAUGAUAAUCACAGUAGAAGGUUCUAACAUGAGGAUCACCCAUGUAGGACUAUACCUGAGAGAA [Parity 48 - Jieux - Same State NG 1] (Eterna round: R96, puzzle: Same State NG 1)

>  <UNIT ANNOTATION>
nM

>  <apparent KD of MS2 coat protein>
12.7

$$$$
>  <SEQUENCE RECORD>
GCGAGCGUACUUGCUACAUGAGGAUCACCCAUGUCUGUUGGACAGGAUAUGGUACCGUUUCGGUACCAGAAGGGUUCAUCAUGU [JL SSNG3 3.74] (Eterna round: R96, puzzle: Same State NG 3)

>  <UNIT ANNOTATION>
nM

>  <apparent KD of MS2 coat protein>
439

$$$$
>  <SEQUENCE RECORD>
CUCCGGAAGCGAGGAUAUGCAGAGGAUCACCCUGCAGAAGGCGCCCUUGCGAGGAUAUGCAGAGGAUCACCCUGCAGAAGGCGC [pwkr ssNG DX.30] (Eterna round: R96, puzzle: Same State NG 1)

>  <UNIT ANNOTATION>
nM

>  <apparent KD of MS2 coat protein>
16.2

$$$$
>  <SEQUENCE RECORD>
GAGGGCGAAAGCAACAUGAGGAUCACCCAUGUUGUCGGAGGGCAGGAUAUCCGGCGAAAGCAGAAGGAGAAGGGUCGAAAAGAA [AK SSNG3-V2-39] (Eterna round: R96, puzzle: Same State NG 3)

>  <UNIT ANNOTATION>
nM

>  <apparent KD of MS2 coat protein>
15.5

$$$$

====

- Tested on: MS2 coat protein
- ASSAY EXPLANATION: apparent KD of MS2 coat protein; higher = weaker reporter binding
- CONDITION DESCRIPTION: Eterna round: R107; input ligand: arginine 13.2 mM

>  <SEQUENCE RECORD>
UUUUUCAUAGGUUAUAGUUAAGAAACUGAAGGAGCGUGGUAAUACACAGGUAGGUCGCAGAUUUUACAUGAGGAUCACCCAUGUU [JR_SSArginiA_Sub009]

>  <TESTED ON>
MS2 coat protein

>  <apparent KD of MS2 coat protein, nM>
27.8

$$$$
>  <SEQUENCE RECORD>
UCCCUACCGUCGGCCGCCACUGGGUCAUACAGUUCGUAACUACAUGAGGAUCACCCAUGUGCAGCCAGGACCGGGACGCGCCUUG [theeternabot_sameState_MS2_Trp_B_16]

>  <TESTED ON>
MS2 coat protein

>  <apparent KD of MS2 coat protein, nM>
30.2

$$$$
>  <SEQUENCE RECORD>
UUCAGCUAGUCGGCCGCCACUACAUGAGCAUCAGCCAUGUUCCUAAAACACUGCUUCGGCAGUGGUAGGACCGGGACUAGCUGAG

>  <TESTED ON>
MS2 coat protein

>  <apparent KD of MS2 coat protein, nM>
10.4

$$$$
>  <SEQUENCE RECORD>
UUCGCGGCCGCGCUGCACAUGUGUGUGUUACGAGGACCGGUACGGCCGCCACUCGCGAUCGCACAUGAGGAUCACCCAUGUGGGA [Exclusion Tryp A GF17]

>  <TESTED ON>
MS2 coat protein

>  <apparent KD of MS2 coat protein, nM>
24.1

$$$$
>  <SEQUENCE RECORD>
UCGGGCAGAGCGGCCGCCACUGUUUGGCAUGCGGAUGACGGAACAUGAGGAUCACCCAUGUUGAUUAGGACCGGGCUUGCGGAGA [eefullin]

>  <TESTED ON>
MS2 coat protein

>  <apparent KD of MS2 coat protein, nM>
11.6

$$$$
>  <SEQUENCE RECORD>
UCAUUUGAGUGAGAUGUAAGGUAUCAUGAUACCAGUAGAUAAUUAUACCCUUGGCAGCAUGACAUGAGGAUCACCCAUGUACAUG [Ad]

>  <TESTED ON>
MS2 coat protein

>  <apparent KD of MS2 coat protein, nM>
9.28

$$$$
>  <SEQUENCE RECORD>
CGCGGACCACCUGAUACCAGCGCAGUCAUGCAUGAACCCAACAUGAGGAUCACCCAUGUACGCCCUUGGCAGCAGGGAAAAGUCG [theeternabot_exclusion_MS2_Theo_B_8]

>  <TESTED ON>
MS2 coat protein

>  <apparent KD of MS2 coat protein, nM>
76.4

$$$$
>  <SEQUENCE RECORD>
UGUGUUGUCCGAAGGAGCGGGACCUAAUAGUGGUAACAUGAGGAUCACCCAUGUAUUUCGUCCCAGGUAGGUCGCGGACAGUGUA [ArgiB-ms2@36]

>  <TESTED ON>
MS2 coat protein

>  <apparent KD of MS2 coat protein, nM>
19

$$$$
>  <SEQUENCE RECORD>
CACAGUGCGAAUUUGAAAUCGCACGAUCCUCGAGGACCGGUACGGCCGCCACUCGCGCGGGUCGUACAUGAGGAUCACCCAUGUC [Beertele]

>  <TESTED ON>
MS2 coat protein

>  <apparent KD of MS2 coat protein, nM>
44

$$$$
>  <SEQUENCE RECORD>
AGCCAUGGAAACAUGGCGGCGGCAUGAGCGCGAGGACCGGUACGGCCGCCACUCGGGCGACAUGAGGAUCACCCAUGUUCCUCAU [ETA NP+V+V2 #22 Same Structure]

>  <TESTED ON>
MS2 coat protein

>  <apparent KD of MS2 coat protein, nM>
145

$$$$
>  <SEQUENCE RECORD>
CCUCGACAUGAGGAUCACCCAUGUAGAGAUACCAGCCUGUGAGAUGGCCCUUGGCAGCUCAUAUAGGGUACGGGAGUCGUUUCGA [Eslaqu]

>  <TESTED ON>
MS2 coat protein

>  <apparent KD of MS2 coat protein, nM>
19.4

$$$$
>  <SEQUENCE RECORD>
CUCUCAUGAACAUGAGGAUCACCCAUGUAACGAGGACCGGUACGGCCGCCACUCGGUCGUGGAAACUAAUCGAGUGAGGUGGGAG [Tryp A Ex t5c]

>  <TESTED ON>
MS2 coat protein

>  <apparent KD of MS2 coat protein, nM>
26.8

$$$$
